assay: Bioavailability of BJ486K in mice, plasma levels by LC-MS/MS; format: in vivo; conditions: mouse, plasma; in mice
measurement kind: half-life

Prompt: Fill in: half-life of COc1ccc(-c2cc(=O)c3c(O)c(O)c(OC)cc3o2)cc1 [BJ486K] is ___
Response: ~7 min

Cited source for all entries: patent US20150056166A1
